system: UACC-62 melanoma; experiment: NCI tumour cell line growth inhibition, 48 h
Below is a list of entries, each paired with its recorded TGI value.
Your answer is read as µM, so omit the unit and give the number.

>  <Mol>
O=c1cc(NNc2ccc(F)cc2)[nH]c(=O)[nH]1

>  <Experimental Target>
UACC-62 melanoma

>  <Result Value>
33.5

$$$$

Fill: TGI (UACC-62 melanoma) for this compound COc1cc(O)c2c3c(ccnc13)-c1ccccc1N2
17.1

Report TGI from UACC-62 melanoma testing of O=C1CNN=C(CSc2nc3ccc(I)cc3c(=O)n2Cc2ccccc2)N1
32.6

Write down the reported TGI (system: UACC-62 melanoma) of COc1cccc(CNCCN2C(=O)c3ccc4c5c(ccc(c35)C2=O)C(=O)N(CCNCc2cccc(OC)c2)C4=O)c1
4

---

Measured TGI, listed per entry.
system: DU-145 prostate; test: NCI tumour cell line growth inhibition, 48 h

Some solved entries appear below for comparison.
>  <Molecule>
CCOC(=O)N1CCC2(CC1)CC(=O)N(Nc1ccccc1)C2=O

>  <TGI>
> 100 µM

$$$$
>  <Molecule>
COc1ccc(CN(Cc2ccc(OC)cc2)C(=O)CC2(O)CCc3ccccc3C2)cc1 (stereo not drawn)

>  <TGI>
> 100 µM

$$$$

Specify measured TGI for Cc1cccc(-n2c(C)nc3ccc(NC(=S)Nc4ccccc4)cc3c2=O)c1 .
> 100 µM

---

Listed below: TGI values for each entry.
test system: UACC-62 melanoma; experiment: NCI tumour cell line growth inhibition, 48 h

Worked cases, TGI given:
>  <Compound>
COc1ccc2c(c1)c(-c1nonc1-c1cn(C)c3ccccc13)cn2C

>  <Result Value>
> 100 µM

$$$$
>  <Compound>
COc1ccc(NC(=O)CSc2nnc(-c3ccc(N=Cc4ccc(Cl)cc4)cc3)o2)cc1

>  <Result Value>
> 100 µM

$$$$
>  <Compound>
COC(=O)C1CC2c3c(c4ccccc4n3C)CC(C1=O)N2C (centres undefined)

>  <Result Value>
> 100 µM

$$$$

// Input: COc1cc2c[n+](C)c3c4cc(OC)c(OC)cc4c(OCCCCCCCCOc4cc5c6cc(OC)c(OC)cc6c[n+](C)c5c5cc(OC)c(OC)cc45)cc3c2cc1OC . Output its TGI only.
> 100 µM

Determine from records and report TGI for C[C@H](Nc1ccc2c(c1)OCCn1cc(N3C(=O)OC[C@H]3C(F)F)nc1-2)C(N)=O
> 100 µM

Consider the compound COc1cc(S(=O)(=O)Nc2ccc(-c3csc(N4C(=O)C(C)SC4c4cccc(Oc5ccccc5)c4)n3)cc2)ccc1Cl (centres undefined) . State its measured TGI.
> 100 µM

Entry O=C(O)C1Cc2c([nH]c3ccccc23)C(CCCCO)N1 (centres undefined) needs its TGI filled in; supply it.
> 100 µM

Return the recorded TGI value; entry: C(=C\c1cc(CCc2nc3ccccc3[nH]2)[nH]n1)/c1ccccc1
> 100 µM

Return the recorded TGI value; entry: COc1ccc(N=NC(=O)NC(CC(C)C)C(=O)NC(CC(C)C)C(=O)O)cc1 (centres undefined)
> 100 µM

---

system: RXF 393 renal; assay: NCI tumour cell line growth inhibition, 48 h
Measure: TGI

Use these answered entries as a reference point.
>  <Compound>
COc1ccccc1C=NC12CC3CC(CC(C3)C1)C2

>  <TGI>
> 100 µM

$$$$
>  <Compound>
CCOC(=O)COc1ccc(OC)c2c1C(=O)CCC2

>  <TGI>
> 100 µM

$$$$

Consider now this further compound.
Please report the measured TGI for CN(C)C(=S)NC(=S)Nc1ccc2ccccc2c1
65.8 µM

Recorded values, source PubChem BioAssay (NCI).
